measurement_target: T1, AAV9 capsid (adeno-associated virus serotype 9, UniProt Q6JC40)
T1 construct: also called wtAAV9; AAV9 vector; copies: 60
assay_info: far-Western, overlay or dot blot; native dot immunoblot: native capsids adsorbed onto nitrocellulose; human mAbs at ~1 µg/ml in PBS with 6% milk, 0.1% Tween-20, 1 h; anti-human-HRP
condition_label: both partners purified
readout_label: binding result

binder	meas_value
mAb1-5 (antibody, V domains shown) VH: EVQLVESGGGLVKPGGSLRLSCAASGFMFSSYSMNWVRQAPGKGLEWVSSISRSDSYIDYADSVKGRFTISRDTAMNVLYLQMDSLRAEDTGVYYCARTHVFNMFREVINDDYYGMDVWGQGTTVTVS VL: ALTQPASVSGSPGQSITISCTGTSSDFGIYNSVSWYQHHPGKAPKLMIFGVSNRPSGVSNRFSGSKSGNTASLSISGLQAEDEADYYCSSFTARSTVVFGGGTKLTVL	binds
mAb3-3 (antibody, V domains shown) VH: QVQLQESGPGLVKSSETLSLTCTVSGESISSSSHYWGWIRQPPGKGLEFLGNVYYLGSTYYNPSLESRVTILLDTSKNQFSLKVNSVTVADTAVYYCARHGAGSYSGLFFDYWGQGARVIVSS VL: DIQMTQSPSFVSASVGDRVNITCRASQGINSWLAWYQQKPGKAPKLLIYSASSLQSGVPSRFSGSGSGTDFTLTISTLQPEDFATYYCQQANSFPYTFGQGTKVD	binds
mAb2-6 (antibody, V domains shown) VH: VQLLESGGALVQPGGSLRLSCAASGFSFSNYAMSWVRQAPGKGLEWVSTISASGGTTYFADSVKGHFTISRDNSKNTLYLQMDSLRAEDTAVYYCAKDPNYYDLSGYFLGGYYFDYWGQGTLVTVSS VL: EIVLTQSPGTLSLSPGERATLSCRASQSVRSSYLAWYQQKPGQAPRLLIYGASSRATDIPDRFSGSGSGTDFTLTISRLEPEDFAVYYCQQYGTSPAFGGGTKV	binds
